Cited source for all entries: the supplement of paper PMC11908140

B1: library; numbered along this chain (parent)
chain: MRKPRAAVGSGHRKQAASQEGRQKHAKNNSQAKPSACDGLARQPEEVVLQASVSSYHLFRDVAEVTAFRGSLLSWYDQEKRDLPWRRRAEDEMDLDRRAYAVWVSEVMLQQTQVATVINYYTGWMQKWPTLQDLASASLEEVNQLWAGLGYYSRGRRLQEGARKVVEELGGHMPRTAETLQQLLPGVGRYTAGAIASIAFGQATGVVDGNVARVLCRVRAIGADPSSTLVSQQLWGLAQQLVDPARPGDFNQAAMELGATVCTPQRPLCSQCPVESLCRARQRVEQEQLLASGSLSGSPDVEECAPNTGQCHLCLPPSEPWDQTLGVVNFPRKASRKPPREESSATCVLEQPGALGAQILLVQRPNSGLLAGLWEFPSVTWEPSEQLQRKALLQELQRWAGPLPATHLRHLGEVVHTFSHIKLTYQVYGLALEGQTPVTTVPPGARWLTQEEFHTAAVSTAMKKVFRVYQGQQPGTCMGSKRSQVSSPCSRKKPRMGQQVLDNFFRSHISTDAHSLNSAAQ

- Variants of: B1
- procedure_text: 8OG:A repair function score (normalized; synonymous = 0, nonsense = -1) (normalized log-likelihood score); higher = more repair activity (WT-like);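 also: cells sorted at 72 h after reporter transfection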
- particulars: with 8OG:A DNA repair reporter (GFP) in HEK-293 MUTYH KO cells
We use -0.2 as the dividing line for 8OG:A repair function score: on or above the line is met, below is not met.

As a guide, the following entries are already answered.
mutation_id | assigned_class
G434Q | met
S276N | met
V415D | not met

stdin: Does Q252K have a reported 8OG:A repair function score of at least -0.2?
stdout: not met
